- assayExplanation: In vivo biodistribution in mice
- Design: species or system normal CD-1 male mice
- experimentalParameters: iv, 30 min (0.5 hr) post injection
experimentalEndpoint: Biodistribution: Lung
Your answer should be a number followed by the unit of measure.

* O=C([O-])CN(CCN(CC(=O)[O-])Cc1cc(CCC(=O)NC(P(=O)(O)O)P(=O)(O)O)ccc1[O-])Cc1cc(CCC(=O)NCCCCCC(=O)NCCCC[C@H](NC(=O)N[C@@H](CCC(=O)O)C(=O)O)C(=O)O)ccc1[O-].[68Ga+3] [[^68Ga]1g] | 1.02 ± 0.13 % dose/g
* [18F-].[Na+] [[^18F]NaF, reference compound] | 0.55 ± 0.11 % dose/g
* O=C([O-])CN(CCN(CC(=O)[O-])Cc1cc(CCC(=O)NC(P(=O)(O)O)P(=O)(O)O)ccc1[O-])Cc1cc(CCC(=O)NCCCNC(=O)CCc2ccc(O)c(CN(CCN(CC(=O)O)Cc3cc(CCC(=O)NC(P(=O)(O)O)P(=O)(O)O)ccc3O)CC(=O)O)c2)ccc1[O-].[68Ga+3] [[^68Ga]3] | 15.6 ± 1.39 % dose/g

Hey, can you go through the list below and give me Biodistribution: Lung for every item?
1. O=C(O)CN1CCN(CC(=O)O)CCN(CC(=O)NC(P(=O)(O)O)P(=O)(O)O)CCN(CC(=O)O)CC1.[68Ga] [[^68Ga]BPAMD, reference compound]
2. O=C([O-])CN(CCN(CC(=O)[O-])Cc1cc(CCC(=O)NC(P(=O)(O)O)P(=O)(O)O)ccc1[O-])Cc1cc(CCC(=O)NCC(=O)O)ccc1[O-].[68Ga+3] [[^68Ga]1c]
3. O=C([O-])CN(CCN(CC(=O)[O-])Cc1cc(CCC(=O)N[C@@H](CC(=O)O)C(=O)O)ccc1[O-])Cc1cc(CCC(=O)NC(P(=O)(O)O)P(=O)(O)O)ccc1[O-].[68Ga+3] [[^68Ga]1e]

1. 0.50 ± 0.16 % dose/g
2. 0.84 ± 0.11 % dose/g
3. 0.42 ± 0.08 % dose/g

Hey, can you go through the list below and give me Biodistribution: Lung for every item?
1. O=C([O-])CN(CCN(CC(=O)[O-])Cc1cc(CCC(=O)O)ccc1[O-])Cc1cc(CCC(=O)O)ccc1[O-].[68Ga+3] [[^68Ga]HBED-CC, reference compound]
2. O=C([O-])CN(CCN(CC(=O)[O-])Cc1cc(CCC(=O)NC(P(=O)(O)O)P(=O)(O)O)ccc1[O-])Cc1cc(CCC(=O)NCCNC(=O)CN2CCN(CC(=O)O)CCN(CC(=O)O)CCN(CC(=O)O)CC2)ccc1[O-].[68Ga+3] [[^68Ga]1h]
3. O=C([O-])CN1CCN(CC(=O)[O-])CCN(CC(=O)NCCNC(=O)CCc2ccc(O)c(CN(CCN(CC(=O)O)Cc3cc(CCC(=O)NC(P(=O)(O)O)P(=O)(O)O)ccc3O)CC(=O)O)c2)CCN(CC(=O)[O-])CC1.[177Lu+3] [[^177Lu]1h]
4. O=C([O-])CN(CCN(CC(=O)[O-])Cc1cc(CCC(=O)NC(P(=O)(O)O)P(=O)(O)O)ccc1[O-])Cc1cc(CCC(=O)O)ccc1[O-].[68Ga+3] [[^68Ga]1a]
5. C[C@H](NC(=O)CCc1ccc([O-])c(CN(CCN(CC(=O)[O-])Cc2cc(CCC(=O)NC(P(=O)(O)O)P(=O)(O)O)ccc2[O-])CC(=O)[O-])c1)C(=O)O.[68Ga+3] [[^68Ga]1d]
6. O=C([O-])CN(CCN(CC(=O)[O-])Cc1cc(CCC(=O)N[C@@H](CCC(=O)O)C(=O)O)ccc1[O-])Cc1cc(CCC(=O)NC(P(=O)(O)O)P(=O)(O)O)ccc1[O-].[68Ga+3] [[^68Ga]1f]
7. O=C([O-])CN(CCN(CC(=O)[O-])Cc1cc(CCC(=O)NC(P(=O)(O)O)P(=O)(O)O)ccc1[O-])Cc1cc(CCC(=O)NC(P(=O)(O)O)P(=O)(O)O)ccc1[O-].[68Ga+3] [[^68Ga]2]
8. O=C([O-])CN(CCN(CC(=O)[O-])Cc1cc(CCC(=O)NC(P(=O)(O)O)P(=O)(O)O)ccc1[O-])Cc1cc(CCC(=O)NC2C(O)OC(CO)C(O)C2O)ccc1[O-].[68Ga+3] (centres unmarked) [[^68Ga]1b]

1: 0.58 ± 0.07 % dose/g; 2: 0.31 ± 0.05 % dose/g; 3: 1.35 ± 1.52 % dose/g; 4: 0.38 ± 0.03 % dose/g; 5: 0.45 ± 0.10 % dose/g; 6: 0.42 ± 0.03 % dose/g; 7: 0.96 ± 0.23 % dose/g; 8: 1.31 ± 0.29 % dose/g

meta.source: patent US10253052B2
